Tested on: Epidermal growth factor receptor (Homo sapiens), P00533 [L858R,T790M]
Sequence (P00533 whole entry T790M/L858R, looked up): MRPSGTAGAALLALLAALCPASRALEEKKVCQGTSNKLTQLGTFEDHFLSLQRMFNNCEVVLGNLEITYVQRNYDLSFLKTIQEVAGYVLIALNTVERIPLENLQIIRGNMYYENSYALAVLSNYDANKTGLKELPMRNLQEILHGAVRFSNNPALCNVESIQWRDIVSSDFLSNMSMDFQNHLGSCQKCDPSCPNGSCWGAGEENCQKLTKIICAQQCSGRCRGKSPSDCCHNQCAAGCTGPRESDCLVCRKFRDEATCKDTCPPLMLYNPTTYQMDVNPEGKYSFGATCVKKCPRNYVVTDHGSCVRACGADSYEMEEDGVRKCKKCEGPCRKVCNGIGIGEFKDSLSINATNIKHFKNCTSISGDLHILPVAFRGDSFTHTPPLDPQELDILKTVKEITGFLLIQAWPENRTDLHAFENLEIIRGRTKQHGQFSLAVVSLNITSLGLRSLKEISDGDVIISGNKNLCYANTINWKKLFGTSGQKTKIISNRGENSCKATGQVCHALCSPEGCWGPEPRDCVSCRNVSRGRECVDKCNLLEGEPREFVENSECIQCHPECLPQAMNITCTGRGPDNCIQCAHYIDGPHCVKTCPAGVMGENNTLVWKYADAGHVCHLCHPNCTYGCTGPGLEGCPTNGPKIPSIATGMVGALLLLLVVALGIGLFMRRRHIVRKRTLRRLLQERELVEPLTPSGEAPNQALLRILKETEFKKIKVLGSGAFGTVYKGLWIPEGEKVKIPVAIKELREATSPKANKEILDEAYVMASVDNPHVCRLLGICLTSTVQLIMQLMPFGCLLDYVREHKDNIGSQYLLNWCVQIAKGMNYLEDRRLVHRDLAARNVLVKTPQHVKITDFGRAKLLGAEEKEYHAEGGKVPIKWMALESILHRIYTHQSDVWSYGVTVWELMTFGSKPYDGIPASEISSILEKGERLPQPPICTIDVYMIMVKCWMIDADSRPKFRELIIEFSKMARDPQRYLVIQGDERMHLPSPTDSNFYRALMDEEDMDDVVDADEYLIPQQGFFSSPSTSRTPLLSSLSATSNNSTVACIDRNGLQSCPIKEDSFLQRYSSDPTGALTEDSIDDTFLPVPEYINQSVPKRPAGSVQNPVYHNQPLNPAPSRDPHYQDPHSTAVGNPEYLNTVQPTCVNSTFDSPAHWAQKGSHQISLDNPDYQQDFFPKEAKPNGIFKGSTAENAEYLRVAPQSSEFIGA
Setup Conditions: at 0.1 µM
Property Label: inhibition
Output should be the measured figure followed by the unit it is expressed in.

These recorded examples may help you get a feel for the data.
CCc1nccc2c1nc(-c1nonc1N)n2CC = -0.81%
Fc1ccc(-c2ncn(CCCN3CCOCC3)c2-c2ccncc2)cc1 = -3.9%
COC(=O)Nc1nc2ccc(Sc3ccc(NC(=O)Nc4cc(C(F)(F)F)ccc4F)cc3)cc2[nH]1 = 4.21%
COc1ccc(-c2ccc3c(NC(=O)C4CC4)n[nH]c3n2)cc1 = -0.83%
NS(=O)(=O)c1ccc(Nc2cc(-c3ccc(O)c(F)c3)n[nH]2)cc1 = -2.9%

I need inhibition for every entry listed below, if you could help.
1. Cc1ccc(NC(=O)c2ccoc2)cc1-c1ccc(C(=O)NCC2CC2)cc1
2. O=C(Nc1ccc(Oc2ccc3[nH]c(NC(=O)c4ccccc4)nc3c2)cc1)Nc1cc(C(F)(F)F)ccc1F
3. COc1ccc(C2=C(N3CCc4ccccc43)C(=O)NC2=O)cc1
4. NS(=O)(=O)c1ccc(N/N=C2\C(=O)Nc3ccc(-c4cnco4)cc32)cc1
5. CN1CCN(CCCNc2nc3ccc(Oc4ccc(NC(=O)Nc5cc(C(F)(F)F)ccc5F)cc4)cc3[nH]2)CC1
6. CN(C)CCCNc1nccc(-c2c(-c3ccc(F)cc3)nn3cc(C(F)(F)F)ccc23)n1

Marked response:
["2.36%", "1.07%", "1.12%", "-2.11%", "-0.44%", "0.09%"]

I need inhibition for every entry listed below, if you could help.
1. Fc1ccc(-c2nc3n(c2-c2ccncc2)CCS3)cc1
2. COc1cc(Nc2ncc3c(C)nc(-c4cccc(C(F)(F)F)c4)n3n2)cc(OC)c1OC
3. Cc1ccc(C(=O)NC(C)C)cc1-c1ccc(C(=O)NCC2CC2)cc1

Marked response:
1: 1.02%; 2: -1.07%; 3: -2.78%

I need inhibition for every entry listed below, if you could help.
1. NCc1ccc(-n2c(-c3nonc3N)nc3cnccc32)cc1
2. c1ccc(-c2n[nH]cc2-c2ccnc(-c3ccc(OCCN4CCOCC4)cc3)c2)nc1

Marked response:
4.81%
1.82%

###

Provide the reported inhibition of each item.
Target Entity: Cyclin-dependent kinase 4 (Homo sapiens);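 further: enzyme tested as the CDK4–cyclin D complex, with the value reported as mean percent inhibition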
Setup Conditions: at 1 µM
Answers are plain numbers, in %.

These recorded examples may help you get a feel for the data.
Cc1ccc(NC(=O)c2ccoc2)cc1-c1ccc(C(=O)NCC2CC2)cc1 = 2.89
O=C(Nc1ccc(Oc2ccc3[nH]c(NC(=O)c4ccccc4)nc3c2)cc1)Nc1cc(C(F)(F)F)ccc1F = 4.9
CN1CCN(CCCNc2nc3ccc(Oc4ccc(NC(=O)Nc5cc(C(F)(F)F)ccc5F)cc4)cc3[nH]2)CC1 = -2.88
Fc1ccc(-c2nc3n(c2-c2ccncc2)CCS3)cc1 = -0.8
CCc1cccc(CC)c1/C=C/c1cncc(C(=O)NC)c1 = 4.03

I need inhibition for every entry listed below, if you could help.
1. NC(=O)c1ccc(Oc2nccc(-c3c(-c4ccc(F)cc4)ncn3C3CCNCC3)n2)cc1
2. CS(=O)(=O)CCNCc1cc(-c2cc3c(Nc4ccc(OCc5cccc(F)c5)c(Cl)c4)ncnc3s2)cs1
3. C[C@@H](Oc1cc(-n2cnc3ccc(OC4CCN(C)CC4)cc32)sc1C(N)=O)c1ccccc1Cl
4. COc1cc(N2CCN(C(C)C)CC2)ccc1Nc1nc(Nc2ccc(F)cc2C(=O)NC[C@@H](O)CO)c2cc[nH]c2n1
5. CCc1ccc(Oc2nccc(-c3c(-c4ccc(F)cc4)ncn3C3CCNCC3)n2)cc1
6. CN(C)CCOc1ccc(-c2cc(-c3ccc4c(c3)CCC4=NO)c(-c3ccncc3)o2)cc1
7. O=C(Nc1n[nH]c2nc(-c3ccco3)ccc12)C1CC1

Marked response:
1. 3.14
2. 4.29
3. -0.3
4. -0.98
5. 2.34
6. 1.69
7. 2.71

I need inhibition for every entry listed below, if you could help.
1. Fc1ccc(-c2ncn(C3CCNCC3)c2-c2ccnc(Oc3ccc(F)c(F)c3)n2)cc1
2. Fc1ccc(-c2ncn(C3CCNCC3)c2-c2ccnc(Oc3ccc(Oc4ccccc4)cc3)n2)cc1
3. COc1ccc2cc(-c3c(-c4ccncc4)nc(-c4ccc([S+](C)[O-])cc4C)n3C)ccc2c1 (stereo not drawn)

Marked response:
1. 3.54
2. 3.52
3. 5.75
